Each record here notes measured STK11 functional score.
B1: library; numbered along this chain (parent)
chain: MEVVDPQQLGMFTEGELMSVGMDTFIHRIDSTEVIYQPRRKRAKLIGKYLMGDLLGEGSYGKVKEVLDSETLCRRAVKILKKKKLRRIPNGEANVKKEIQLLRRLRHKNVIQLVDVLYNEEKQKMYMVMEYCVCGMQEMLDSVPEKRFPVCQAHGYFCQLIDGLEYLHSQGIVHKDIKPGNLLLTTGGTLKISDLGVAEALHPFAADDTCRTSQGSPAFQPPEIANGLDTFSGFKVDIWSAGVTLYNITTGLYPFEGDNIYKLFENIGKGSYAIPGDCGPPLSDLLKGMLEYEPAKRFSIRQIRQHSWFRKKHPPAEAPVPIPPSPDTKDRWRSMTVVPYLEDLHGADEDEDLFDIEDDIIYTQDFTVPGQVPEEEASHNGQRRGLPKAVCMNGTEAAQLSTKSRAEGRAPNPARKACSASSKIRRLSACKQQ

Variants of: B1
Assay Notes: STK11 functional score (HeLa growth suppression), rescaled enrichment; synonymous median = 1, nonsense median = 0 (normalised score)
Test Conditions: with HeLa; variant type: missense

Mutation Descriptor	STK11 functional score
K403H	1.53
I35G	1.25
K64G	0.436
G408V	1.2
P339I	1.52
Q112M	0.897
L102Y	1.2
E165M	0.0982
A273P	1.4
C278H	1.06
P38G	0.508
Q364W	0.791
L263W	-0.0482
Q302C	1
K41P	1.58
Y253F	0.587
G346Q	1.61
Q432R	1.6
A316Y	1.4
Q382P	1.35
D30C	1.44
R425G	1.55
